STUDY_TARGET: 5-Hydroxytryptamine (Serotonin) Receptor 1A (5-HT1A) (Homo sapiens)
Construct: host or cells: cAMP Hunter cell line
Sequence (P08908 whole entry): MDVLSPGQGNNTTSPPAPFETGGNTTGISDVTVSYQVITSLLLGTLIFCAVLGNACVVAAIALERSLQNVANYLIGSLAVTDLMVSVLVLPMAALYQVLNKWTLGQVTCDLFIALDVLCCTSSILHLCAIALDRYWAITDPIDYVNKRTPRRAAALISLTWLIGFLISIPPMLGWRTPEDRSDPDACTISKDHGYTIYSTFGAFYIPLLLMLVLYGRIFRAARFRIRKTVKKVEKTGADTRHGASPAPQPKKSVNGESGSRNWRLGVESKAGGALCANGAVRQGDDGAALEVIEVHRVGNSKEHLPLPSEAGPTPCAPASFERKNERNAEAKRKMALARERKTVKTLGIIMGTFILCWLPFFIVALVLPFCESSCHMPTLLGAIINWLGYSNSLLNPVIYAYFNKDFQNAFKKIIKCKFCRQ
PROTOCOL_NOTES: cAMP secondary messenger assay, antagonist format
Type: cell-based
COND: read-out: IC50 (μM) Antag./Blocker/Inhibitor
Counter-ions that a name gives are not always drawn.
EXPERIMENTAL_ENDPOINT: IC50

# IC50 lookup, item CN(C)CCc1ccn2ccccc12 [28-12 oxalate]
> 30 µM

====

STUDY_TARGET: Histamine Receptor H2 (HRH2) (Homo sapiens, UniProt P25021)
Sequence (P25021 whole entry): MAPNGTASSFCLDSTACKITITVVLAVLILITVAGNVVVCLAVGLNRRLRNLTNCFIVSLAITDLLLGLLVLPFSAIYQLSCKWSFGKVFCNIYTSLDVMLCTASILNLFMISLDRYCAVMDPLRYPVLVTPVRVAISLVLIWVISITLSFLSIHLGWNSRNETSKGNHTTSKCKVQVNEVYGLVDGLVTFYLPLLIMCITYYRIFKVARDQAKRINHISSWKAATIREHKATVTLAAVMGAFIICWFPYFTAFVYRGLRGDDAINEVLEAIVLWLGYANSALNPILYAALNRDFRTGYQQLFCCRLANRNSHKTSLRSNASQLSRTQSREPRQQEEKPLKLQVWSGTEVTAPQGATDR
PROTOCOL_NOTES: cAMP secondary messenger assay, antagonist format
Assay type: cell-based
COND: read-out: IC50 (μM) Antag./Blocker/Inhibitor
Where a name gives a salt, the structure may show the parent alone.
EXPERIMENTAL_ENDPOINT: IC50

# IC50 lookup, item CN(C)CCc1ccn2ccccc12 [28-12 oxalate]
> 30 µM

====

STUDY_TARGET: KvLQT1/minK (Homo sapiens)
Sequence (P51787 whole entry): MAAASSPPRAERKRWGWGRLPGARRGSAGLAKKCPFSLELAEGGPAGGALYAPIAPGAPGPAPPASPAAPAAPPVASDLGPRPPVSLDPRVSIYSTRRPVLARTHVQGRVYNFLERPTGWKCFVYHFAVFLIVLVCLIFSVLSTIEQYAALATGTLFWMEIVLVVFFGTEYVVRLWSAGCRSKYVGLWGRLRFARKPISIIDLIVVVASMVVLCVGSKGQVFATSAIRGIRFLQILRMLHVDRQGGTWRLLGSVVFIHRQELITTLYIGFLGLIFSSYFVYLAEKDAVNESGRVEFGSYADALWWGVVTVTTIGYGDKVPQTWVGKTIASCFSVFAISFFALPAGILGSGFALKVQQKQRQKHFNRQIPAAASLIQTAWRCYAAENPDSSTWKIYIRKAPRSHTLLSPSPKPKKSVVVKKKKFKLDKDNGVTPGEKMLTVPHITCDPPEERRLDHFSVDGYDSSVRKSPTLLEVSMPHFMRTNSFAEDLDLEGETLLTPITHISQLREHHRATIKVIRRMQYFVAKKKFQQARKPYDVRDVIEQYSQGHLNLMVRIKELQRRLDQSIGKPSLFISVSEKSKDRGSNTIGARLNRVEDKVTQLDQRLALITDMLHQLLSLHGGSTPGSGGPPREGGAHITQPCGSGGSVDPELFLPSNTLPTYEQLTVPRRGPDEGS
PROTOCOL_NOTES: Ion channel assay, opener format
Format: cell-based
COND: read-out: EC50 (μM) Agonist/Opener
Counter-ions that a name gives are not always drawn.
EXPERIMENTAL_ENDPOINT: EC50

# EC50 lookup, item CN(C)CCc1ccn2ccccc12 [28-12 oxalate]
> 30 µM

====

STUDY_TARGET: norepinephrine transporter (Homo sapiens, UniProt P23975)
Sequence (P23975 whole entry): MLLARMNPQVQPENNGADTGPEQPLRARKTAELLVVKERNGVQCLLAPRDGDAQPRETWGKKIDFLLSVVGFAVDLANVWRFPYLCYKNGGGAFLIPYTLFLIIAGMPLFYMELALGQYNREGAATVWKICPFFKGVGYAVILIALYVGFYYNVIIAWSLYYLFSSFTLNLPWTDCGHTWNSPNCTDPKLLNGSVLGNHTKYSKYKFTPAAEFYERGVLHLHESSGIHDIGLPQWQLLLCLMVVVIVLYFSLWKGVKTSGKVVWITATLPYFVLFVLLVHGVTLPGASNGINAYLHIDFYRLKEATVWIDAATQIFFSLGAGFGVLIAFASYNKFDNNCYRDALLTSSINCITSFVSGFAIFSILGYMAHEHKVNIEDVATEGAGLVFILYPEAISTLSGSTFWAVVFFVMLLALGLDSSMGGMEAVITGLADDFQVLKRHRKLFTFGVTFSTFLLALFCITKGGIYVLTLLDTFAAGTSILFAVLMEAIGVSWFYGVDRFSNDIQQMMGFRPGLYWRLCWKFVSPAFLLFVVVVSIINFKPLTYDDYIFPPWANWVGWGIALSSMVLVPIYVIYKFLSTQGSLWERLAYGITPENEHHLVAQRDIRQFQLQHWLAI
PROTOCOL_NOTES: Monoamine transporter uptake assay (Neurotransmitter Transporter Uptake Assay Kit), blocker format
pIC50: −log10 of the molar value. Counter-ions that a name gives are not always drawn.
EXPERIMENTAL_ENDPOINT: pIC50

Recorded pIC50 for CN(C)CCc1ccn2ccccc12 [28-12 oxalate] with norepinephrine transporter (Homo sapiens, UniProt P23975), please?
< 4.52

====

STUDY_TARGET: Adrenergic Receptor α1A (ADRA1A) (Homo sapiens, UniProt P35348)
Sequence (P35348 1-466): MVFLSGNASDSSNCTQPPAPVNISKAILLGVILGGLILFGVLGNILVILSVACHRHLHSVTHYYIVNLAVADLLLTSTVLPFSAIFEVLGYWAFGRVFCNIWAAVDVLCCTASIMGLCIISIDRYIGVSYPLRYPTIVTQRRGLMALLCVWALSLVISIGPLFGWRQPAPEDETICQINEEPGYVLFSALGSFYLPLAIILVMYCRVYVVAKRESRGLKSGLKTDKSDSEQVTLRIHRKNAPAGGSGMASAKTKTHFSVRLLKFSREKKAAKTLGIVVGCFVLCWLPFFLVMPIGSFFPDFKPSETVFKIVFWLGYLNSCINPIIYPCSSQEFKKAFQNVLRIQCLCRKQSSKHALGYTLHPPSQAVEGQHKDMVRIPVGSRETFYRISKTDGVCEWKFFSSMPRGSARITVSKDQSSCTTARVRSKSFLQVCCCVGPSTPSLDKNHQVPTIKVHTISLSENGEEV
PROTOCOL_NOTES: Calcium flux secondary messenger assay, agonist format
Type: cell-based
COND: read-out: EC50 (μM) Agonist/Opener
Structures can show the parent of a compound that is named as a salt.
EXPERIMENTAL_ENDPOINT: EC50

# EC50 lookup, item CN(C)CCc1ccn2ccccc12 [28-12 oxalate]
> 30 µM

====

STUDY_TARGET: UniProt P29274
Sequence (P29274 whole entry): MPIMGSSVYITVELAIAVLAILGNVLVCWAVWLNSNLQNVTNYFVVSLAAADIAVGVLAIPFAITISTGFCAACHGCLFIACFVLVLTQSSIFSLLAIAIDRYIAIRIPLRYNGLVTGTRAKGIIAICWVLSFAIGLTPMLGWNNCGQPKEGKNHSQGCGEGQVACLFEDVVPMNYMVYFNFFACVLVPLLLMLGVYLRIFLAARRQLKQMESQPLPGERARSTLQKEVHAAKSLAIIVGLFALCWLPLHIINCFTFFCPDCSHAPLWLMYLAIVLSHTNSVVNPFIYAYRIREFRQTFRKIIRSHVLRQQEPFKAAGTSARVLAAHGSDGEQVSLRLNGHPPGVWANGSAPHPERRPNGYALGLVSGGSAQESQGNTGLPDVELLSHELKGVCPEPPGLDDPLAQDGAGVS
PROTOCOL_NOTES: Calcium flux secondary messenger assay, antagonist format
Assay type: cell-based
COND: read-out: IC50 (μM) Antag./Blocker/Inhibitor
Counter-ions that a name gives are not always drawn.
EXPERIMENTAL_ENDPOINT: IC50

Recorded IC50 for CN(C)CCc1ccn2ccccc12 [28-12 oxalate] with UniProt P29274, please?
> 30 µM

====

STUDY_TARGET: 5-Hydroxytryptamine (Serotonin) Receptor 3A (5-HT3A) (Homo sapiens, UniProt P46098)
Construct: expressed in transfected cells
Sequence (P46098 24-478): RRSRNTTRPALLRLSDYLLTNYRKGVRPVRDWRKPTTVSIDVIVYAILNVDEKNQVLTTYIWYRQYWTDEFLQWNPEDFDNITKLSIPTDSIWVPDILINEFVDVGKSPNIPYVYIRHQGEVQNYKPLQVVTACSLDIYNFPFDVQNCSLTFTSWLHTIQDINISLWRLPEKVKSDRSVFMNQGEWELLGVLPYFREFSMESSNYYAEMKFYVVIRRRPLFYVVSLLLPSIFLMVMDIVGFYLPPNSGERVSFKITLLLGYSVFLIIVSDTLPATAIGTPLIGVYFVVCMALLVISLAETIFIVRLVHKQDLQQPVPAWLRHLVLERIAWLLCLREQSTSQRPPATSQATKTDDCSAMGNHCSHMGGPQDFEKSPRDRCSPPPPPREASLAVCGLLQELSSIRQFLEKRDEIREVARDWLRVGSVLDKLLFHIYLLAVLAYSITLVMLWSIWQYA
PROTOCOL_NOTES: Ion channel assay, blocker format
Type: cell-based
COND: read-out: IC50 (μM) Antag./Blocker/Inhibitor
Counter-ions that a name gives are not always drawn.
EXPERIMENTAL_ENDPOINT: IC50 (µM)
Express it in µM; write the number only.

# IC50 lookup, item CN(C)CCc1ccn2ccccc12 [28-12 oxalate]
7.82

====

STUDY_TARGET: UniProt P08588
PROTOCOL_NOTES: cAMP secondary messenger assay, agonist format
Type: cell-based
COND: read-out: EC50 (μM) Agonist/Opener
Counter-ions that a name gives are not always drawn.
EXPERIMENTAL_ENDPOINT: EC50

# EC50 lookup, item CN(C)CCc1ccn2ccccc12 [28-12 oxalate]
> 30 µM

====

STUDY_TARGET: Adrenergic Receptor β1 (ADRB1) (Homo sapiens, UniProt P08588)
Sequence (P08588 whole entry): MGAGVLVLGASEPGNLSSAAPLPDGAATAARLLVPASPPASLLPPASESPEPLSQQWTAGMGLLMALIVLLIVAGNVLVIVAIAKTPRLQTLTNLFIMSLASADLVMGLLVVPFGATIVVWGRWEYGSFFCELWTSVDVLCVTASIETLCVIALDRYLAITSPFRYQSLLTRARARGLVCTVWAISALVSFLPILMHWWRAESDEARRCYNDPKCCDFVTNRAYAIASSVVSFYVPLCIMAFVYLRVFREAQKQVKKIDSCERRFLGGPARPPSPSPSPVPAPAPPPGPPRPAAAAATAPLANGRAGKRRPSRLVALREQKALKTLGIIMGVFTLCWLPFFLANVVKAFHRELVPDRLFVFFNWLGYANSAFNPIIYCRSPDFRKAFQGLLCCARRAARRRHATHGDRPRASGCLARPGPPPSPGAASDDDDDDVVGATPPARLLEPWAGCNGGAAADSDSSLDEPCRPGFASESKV
PROTOCOL_NOTES: cAMP secondary messenger assay, antagonist format
Format: cell-based
COND: read-out: IC50 (μM) Antag./Blocker/Inhibitor
Structures can show the parent of a compound that is named as a salt.
EXPERIMENTAL_ENDPOINT: IC50

# IC50 lookup, item CN(C)CCc1ccn2ccccc12 [28-12 oxalate]
> 30 µM

====

STUDY_TARGET: serotonin transporter (Homo sapiens)
Construct: expressed in transfected cells
Sequence (P31645 whole entry): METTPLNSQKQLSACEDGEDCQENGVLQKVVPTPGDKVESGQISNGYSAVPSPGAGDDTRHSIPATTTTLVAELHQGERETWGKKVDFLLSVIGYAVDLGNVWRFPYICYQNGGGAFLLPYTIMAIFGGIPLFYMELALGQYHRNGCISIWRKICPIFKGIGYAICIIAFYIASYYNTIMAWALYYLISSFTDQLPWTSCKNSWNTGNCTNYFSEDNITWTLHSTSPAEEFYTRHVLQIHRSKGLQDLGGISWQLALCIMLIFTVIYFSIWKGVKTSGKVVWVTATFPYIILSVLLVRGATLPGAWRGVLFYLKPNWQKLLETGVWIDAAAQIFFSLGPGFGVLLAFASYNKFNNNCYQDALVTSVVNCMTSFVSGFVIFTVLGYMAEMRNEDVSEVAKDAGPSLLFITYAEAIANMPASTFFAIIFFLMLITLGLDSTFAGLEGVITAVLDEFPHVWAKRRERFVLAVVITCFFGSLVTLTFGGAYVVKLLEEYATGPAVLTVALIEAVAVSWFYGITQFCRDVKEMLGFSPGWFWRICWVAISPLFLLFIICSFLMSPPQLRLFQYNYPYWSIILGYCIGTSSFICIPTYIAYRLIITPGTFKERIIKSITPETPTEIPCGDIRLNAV
PROTOCOL_NOTES: cell-based
COND: SERT, blocker, read-out: IC50 (μM) Antag./Blocker/Inhibitor
Counter-ions that a name gives are not always drawn.
EXPERIMENTAL_ENDPOINT: IC50

# IC50 lookup, item CN(C)CCc1ccn2ccccc12 [28-12 oxalate]
> 30 µM

====

STUDY_TARGET: Opioid Receptor Mu (OPRM1) (Homo sapiens, UniProt P35372)
Sequence (P35372 whole entry): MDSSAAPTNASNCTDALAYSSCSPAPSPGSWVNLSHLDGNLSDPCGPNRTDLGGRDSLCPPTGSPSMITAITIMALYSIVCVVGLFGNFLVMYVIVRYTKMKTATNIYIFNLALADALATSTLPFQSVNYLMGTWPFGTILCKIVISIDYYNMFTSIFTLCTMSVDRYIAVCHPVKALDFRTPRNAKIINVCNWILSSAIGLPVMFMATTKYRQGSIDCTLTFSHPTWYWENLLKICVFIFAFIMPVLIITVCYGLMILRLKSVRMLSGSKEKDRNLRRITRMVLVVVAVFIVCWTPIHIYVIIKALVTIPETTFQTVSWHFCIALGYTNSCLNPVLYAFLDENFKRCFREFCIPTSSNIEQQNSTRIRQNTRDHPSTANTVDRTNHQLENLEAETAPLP
PROTOCOL_NOTES: cell-based
COND: cAMP, agonist, read-out: EC50 (μM) Agonist/Opener
Structures can show the parent of a compound that is named as a salt.
EXPERIMENTAL_ENDPOINT: EC50

# EC50 lookup, item CN(C)CCc1ccn2ccccc12 [28-12 oxalate]
> 30 µM

====

STUDY_TARGET: Adrenergic Receptor β2 (ADRB2) (Homo sapiens)
PROTOCOL_NOTES: cAMP secondary messenger assay, agonist format
Assay type: cell-based
COND: read-out: EC50 (μM) Agonist/Opener
Where a name gives a salt, the structure may show the parent alone.
EXPERIMENTAL_ENDPOINT: EC50

Recorded EC50 for CN(C)CCc1ccn2ccccc12 [28-12 oxalate] with Adrenergic Receptor β2 (ADRB2) (Homo sapiens), please?
> 30 µM

====

STUDY_TARGET: Opioid Receptor Delta 1 (OPRD1) (Homo sapiens)
PROTOCOL_NOTES: cAMP secondary messenger assay, agonist format
Assay type: cell-based
COND: read-out: EC50 (μM) Agonist/Opener
Structures can show the parent of a compound that is named as a salt.
EXPERIMENTAL_ENDPOINT: EC50

# EC50 lookup, item CN(C)CCc1ccn2ccccc12 [28-12 oxalate]
> 30 µM

====

STUDY_TARGET: AChE (Homo sapiens, UniProt P22303)
Construct: purchased R&D Systems
PROTOCOL_NOTES: Enzymatic assay AChE
Type: biochemical
COND: inhibitor, read-out: IC50 (μM) Antag./Blocker/Inhibitor
Structures can show the parent of a compound that is named as a salt.
EXPERIMENTAL_ENDPOINT: IC50

# IC50 lookup, item CN(C)CCc1ccn2ccccc12 [28-12 oxalate]
> 30 µM

====

STUDY_TARGET: Muscarinic acetylcholine Receptor M2 (CHRM2) (Homo sapiens)
PROTOCOL_NOTES: cAMP secondary messenger assay, agonist format
Assay type: cell-based
COND: read-out: EC50 (μM) Agonist/Opener
Counter-ions that a name gives are not always drawn.
EXPERIMENTAL_ENDPOINT: EC50

# EC50 lookup, item CN(C)CCc1ccn2ccccc12 [28-12 oxalate]
> 30 µM

====

STUDY_TARGET: Cannabinoid Receptor 2 (CNR2) (Homo sapiens, UniProt P34972)
PROTOCOL_NOTES: cAMP secondary messenger assay, agonist format
Format: cell-based
COND: read-out: EC50 (μM) Agonist/Opener
Counter-ions that a name gives are not always drawn.
EXPERIMENTAL_ENDPOINT: EC50

# EC50 lookup, item CN(C)CCc1ccn2ccccc12 [28-12 oxalate]
> 30 µM

====

STUDY_TARGET: 5-HT1B receptors (Homo sapiens, UniProt P28222)
Construct: host or cells: cAMP Hunter cell line
Sequence (P28222 whole entry): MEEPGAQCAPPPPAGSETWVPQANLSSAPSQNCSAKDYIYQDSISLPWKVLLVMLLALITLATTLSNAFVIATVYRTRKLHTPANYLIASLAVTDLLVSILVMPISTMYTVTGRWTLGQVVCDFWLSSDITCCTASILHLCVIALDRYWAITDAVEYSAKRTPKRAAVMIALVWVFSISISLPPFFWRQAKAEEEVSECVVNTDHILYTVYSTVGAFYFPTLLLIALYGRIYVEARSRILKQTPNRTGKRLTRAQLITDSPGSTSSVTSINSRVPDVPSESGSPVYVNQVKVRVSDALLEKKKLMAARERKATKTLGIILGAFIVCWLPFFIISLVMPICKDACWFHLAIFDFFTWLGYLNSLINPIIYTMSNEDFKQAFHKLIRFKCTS
PROTOCOL_NOTES: In vitro activity at 5-HT1B receptors, agonist mode (cAMP secondary messenger assay)
Assay type: cell-based
COND: 5-HT1B, cAMP, read-out: EC50 (μM) Agonist/Opener
Structures can show the parent of a compound that is named as a salt.
EXPERIMENTAL_ENDPOINT: EC50 (µM)
Express it in µM; write the number only.

# EC50 lookup, item CN(C)CCc1ccn2ccccc12 [28-12 oxalate]
0.143

====

STUDY_TARGET: Histamine Receptor H2 (HRH2) (Homo sapiens)
PROTOCOL_NOTES: cAMP secondary messenger assay, agonist format
Assay type: cell-based
COND: read-out: EC50 (μM) Agonist/Opener
Structures can show the parent of a compound that is named as a salt.
EXPERIMENTAL_ENDPOINT: EC50

# EC50 lookup, item CN(C)CCc1ccn2ccccc12 [28-12 oxalate]
> 30 µM
